Each record here notes measured CC50 at 48 h.
Assay: Cytotoxicity against MDCK cells after 2 days by MTT assay
Format: cell-based, Canis lupus familiaris
Details: dog
State the value with its unit after it.

{"sample.smiles": "C[C@H]1O[C@H](O[C@@H]2[C@H](O)[C@@H](O[C@H]3O[C@H](C)[C@@H](O)[C@H](O)[C@@H]3O)[C@H](O[C@H]3CC[C@]4(C)[C@H]5CC=C6[C@@H]7CC(C)(C)CC[C@]7(C(=O)OCc7ccccc7)CC[C@@]6(C)[C@]5(C)CC[C@H]4C3(C)C)O[C@@H]2CO)[C@@H](O)[C@@H](O)[C@@H]1O", "quantity": "CC50 at 48 h", "observed": "82.4 µM"}

Incoming: Fill in CC50 at 48 h for record "CC1(C)CC[C@]2(C(=O)OCc3ccccc3)CC[C@]3(C)C(=CC[C@@H]4[C@@]5(C)CC[C@H](O[C@@H]6O[C@H](CO)[C@@H](O[C@@H]7OC[C@@H](O)[C@@H](O)[C@@H]7O)[C@H](O)[C@H]6O[C@@H]6OC[C@@H](O)[C@@H](O)[C@@H]6O)C(C)(C)[C@@H]5CC[C@]43C)[C@@H]2C1"
Outgoing: 48.2 µM

These measurements were taken from ChEMBL document CHEMBL4052707.
